// data source = patent US20240148707A1

# Protocol summary: Phase I drug-drug interaction study with sevelamer carbonate
# Assay type: in vivo, human
# Condition description: human, plasma, oral, 300 mg, vadadustat 300 mg alone, immediately after breakfast; mean ± SD; read-out: Clearance (ClB) (converted)
Measurement name: clearance (mL/min)

                             smiles_text  measurement_name  reported
0  O=C(O)CNC(=O)c1ncc(-c2cccc(Cl)c2)cc1O         clearance      28.8

* * *

# Protocol summary: Phase I drug-drug interaction study with sevelamer carbonate
# Type: in vivo, human
# Condition description: human, plasma, oral, 300 mg, vadadustat 300 mg alone, immediately after breakfast; mean ± SD; read-out: AUC0-∞
Measurement name: AUC(0-inf) (µg·h/mL)

                             smiles_text  unit_spec  reported
0  O=C(O)CNC(=O)c1ncc(-c2cccc(Cl)c2)cc1O    µg·h/mL       190
